Quick list: MIC90 per entry.
# System: methicillin-resistant Staphylococcus aureus (MRSA)
# ASSAY OVERVIEW: Broth microdilution MIC/MBC, MRSA
# Format: cell-based
# STATED CONDITIONS: 11 MRSA strains
A number alone suffices; assume µM.

Sample answers from the record:
In one line, give reported MIC90 of the entry O=C(O)[C@H](Cc1ccccc1)N1C(=O)/C(=C/c2cccc(OC/C=C/c3ccc(Cl)c(Cl)c3)c2)SC1=S .
8

Specify measured MIC90 for O=C(O)[C@@H](Cc1ccccc1)N1C(=O)/C(=C/c2cccc(Oc3ccc(F)cc3)c2)SC1=S .
32

Please look at this compound and report its MIC90: O=C(O)[C@H](Cc1ccccc1)N1C(=O)/C(=C/c2cccc(-c3ccccc3)c2)SC1=S
16

Look up and state reported MIC90 for O=C(O)[C@H](Cc1ccccc1)N1C(=O)/C(=C/c2cccc(Cc3ccc(Cl)c(Cl)c3)c2)SC1=S
16

Entry O=C(O)[C@H](Cc1ccccc1)N1C(=O)/C(=C/c2cccc(-c3ccc(Cl)c(Cl)c3)c2)SC1=S needs its MIC90 filled in; supply it.
4

Identify MIC90 associated with the compound O=C(O)[C@H](Cc1ccccc1)N1C(=O)/C(=C/c2cccc(Oc3ccc(Cl)c(Cl)c3)c2)SC1=S
8

Let us examine a further case.
Check the records and state MIC90 for O=C(O)[C@@H](Cc1ccccc1)N1C(=O)/C(=C/c2cccc(Cc3ccccc3)c2)SC1=S
16

---

Listed next: entries and their corresponding MIC.
# System: Escherichia coli O157:H7
# ASSAY OVERVIEW: MIC with/without sub-MIC colistin, Escherichia coli O157:H7
# Type: cell-based
# STATED CONDITIONS: Escherichia coli, ATCC700728

Respond only with MIC recorded for CC[C@H]1OC(=O)[C@H](C)[C@@H](O[C@H]2C[C@@](C)(OC)[C@@H](O)[C@H](C)O2)[C@H](C)[C@@H](O[C@@H]2O[C@H](C)C[C@H](N(C)C)[C@H]2O)[C@](C)(O)C[C@@H](C)C(=O)[C@H](C)[C@@H](O)[C@]1(C)O [Erythromycin, erythromycin, reference compound]
32 µM

Please give the documented MIC of O=C(O)[C@H](Cc1ccccc1)N1C(=O)/C(=C/c2cccc(-c3ccc(Cl)c(Cl)c3)c2)SC1=S
> 128 µM

Find the measured MIC of O=C(O)[C@@H](Cc1ccccc1)N1C(=O)/C(=C/c2cccc(Oc3ccc(F)cc3)c2)SC1=S and report it.
> 128 µM

Using the record for CC(=O)O[C@H]1C[C@@]2(C)[C@@H](C[C@@H](O)[C@H]3[C@@]4(C)CC[C@@H](O)[C@@H](C)[C@@H]4CC[C@@]32C)/C1=C(\CCC=C(C)C)C(=O)O [Fusidic acid, fusidic acid, reference compound] , state its measured MIC.
> 128 µM

Answer with reported MIC of O=C(O)[C@H](Cc1ccccc1)N1C(=O)/C(=C/c2cccc(Cc3ccc(Cl)c(Cl)c3)c2)SC1=S
> 128 µM

---

# Tested on: Vancomycin Resistant Staphylococcus aureus (VRSA)
# ASSAY OVERVIEW: Broth microdilution MIC/MBC, VRSA
# Format: cell-based
# STATED CONDITIONS: VRSA, VRSA 6, read-out: MIC
# key: entry, value: MIC
Just the number in µM, nothing appended.

Some molecules with recorded MIC:
Specify MIC for O=C(O)[C@H](Cc1ccccc1)N1C(=O)/C(=C/c2cccc(Cc3ccc(Cl)c(Cl)c3)c2)SC1=S and stop.
8

Check the records and state MIC for O=C(O)[C@@H](Cc1ccccc1)N1C(=O)/C(=C/c2cccc(Oc3ccc(F)cc3)c2)SC1=S
16

Now for a further molecule.
Entry O=C(O)[C@H](Cc1ccccc1)N1C(=O)/C(=C/c2cccc(-c3ccccc3)c2)SC1=S needs its MIC filled in; supply it.
8
